Reported inhibition is given for each of the following compounds.
Target: Mannose-6-phosphate isomerase (Homo sapiens)
Experiment: MPI inhibition at elevated mannose 6-phosphate – biochemical, fluorescence intensity, high mannose 6-phosphate, primary screen (AID 1220)
Conditions: recombinant PMI enzyme, coupled fluorescence intensity; at 20 µM; active compounds read high
Hit rate of the full screen: of about 190,000 compounds, about 1,300 (0.68%) were called active. The entries come from a sample that favours actives as a whole.
parameter: inhibition (%)

[[record]]
compound = "CC(=O)Nc1ccc2c(c1)C(=O)c1ccccc1C2=O"
unit = "%"
value = -69.9

[[record]]
compound = "Cn1ccnc1Sc1cc(NCCCO)c([N+](=O)[O-])c2nonc12"
unit = "%"
value = 24.2

[[record]]
compound = "NC(=O)Nn1c(CCC(=O)O)ccc1-c1ccc(Br)cc1"
unit = "%"
value = -6.3

[[record]]
compound = "CCCC(=O)OCCNc1cc(Sc2nc3ccccc3[nH]2)c2nonc2c1[N+](=O)[O-]"
unit = "%"
value = 33

[[record]]
compound = "COc1cc(CNc2ccc(N3CCN(C(C)=O)CC3)cc2)ccc1OCc1ccc(F)cc1"
unit = "%"
value = 27

[[record]]
compound = "CC(=O)c1cnc(Nc2ccc(C)cc2)s1"
unit = "%"
value = 1.9

[[record]]
compound = "O=C1C(Cl)=C(NCCN2CCCCC2)C(=O)c2ccccc21"
unit = "%"
value = 54.3

[[record]]
compound = "COc1nc(OC)nc(N2CCC(C(=O)NC3CCCCCC3)CC2)n1"
unit = "%"
value = 1.4

[[record]]
compound = "COc1ccc(-n2c(SCC(=O)Nc3nccs3)nc3c(c2=O)SCC3)cc1"
unit = "%"
value = 11.9

[[record]]
compound = "O=C(Nc1ccccc1-c1ccccc1)C1CCC1"
unit = "%"
value = 8.4

[[record]]
compound = "CCCC(=O)OCCNc1cc(Sc2nccn2C)c2nonc2c1[N+](=O)[O-]"
unit = "%"
value = 30.4

[[record]]
compound = "COc1ccc(-c2nc(N3CCCC3)[nH]c(=O)c2C#N)cc1"
unit = "%"
value = -5.5

[[record]]
compound = "Cc1c(C(=O)Oc2cccc3cccnc23)oc2ccccc12"
unit = "%"
value = 50

[[record]]
compound = "O=C(Oc1ccc(NC2=C(Cl)C(=O)c3ccccc3C2=O)cc1)c1ccc([N+](=O)[O-])cc1"
unit = "%"
value = 32.9

[[record]]
compound = "COc1cc(CNc2ccc(N3CCCC3)cc2)ccc1OCc1ccccc1F"
unit = "%"
value = 55.7

[[record]]
compound = "Cc1ccc2cccc(OCC(=O)Nc3ccc4c(c3)OCO4)c2n1"
unit = "%"
value = 15.2

[[record]]
compound = "O=C(CNS(=O)(=O)c1ccccc1F)Nc1ccc(N2CCOCC2)cc1"
unit = "%"
value = 1

[[record]]
compound = "CCCN1CCN(c2nc3c([nH]2)c(=N)ncn3CC(O)CO)CC1 (centres undefined)"
unit = "%"
value = 2.5

[[record]]
compound = "N#C/C(=C\\c1ccncc1)C(N)=O"
unit = "%"
value = 17.1

[[record]]
compound = "CCC(=O)OCCNc1cc(Sc2nccn2C)c2nonc2c1[N+](=O)[O-]"
unit = "%"
value = 50.8

[[record]]
compound = "CC(C)(C)C1=CC(=O)C(N2CCOCC2)=CC1=O"
unit = "%"
value = 65.3

[[record]]
compound = "O=C(O)COc1ccc(/C=N/NC(=O)C2CCCN2S(=O)(=O)c2ccc(Cl)cc2)cc1 (centres undefined)"
unit = "%"
value = -3.5

[[record]]
compound = "CC1=C(C)C(=O)C(N2CCOCC2)=CC1=O"
unit = "%"
value = -17.5

[[record]]
compound = "C=CCOC(=O)C1=C[C@@H](c2ccc3c(c2)OCO3)C[C@@H](OCc2ccc(CO)cc2)O1"
unit = "%"
value = 20

[[record]]
compound = "O=C1C(Cl)=C(Nc2ccccc2)C(=O)c2ccccc21"
unit = "%"
value = 52.5

[[record]]
compound = "CC(C)OP(=O)(c1ccccc1)c1ccccc1"
unit = "%"
value = -8.8

[[record]]
compound = "O=C(O)C1=C[C@@H](c2ccc3c(c2)OCO3)C[C@@H](OCc2ccc(CO)cc2)O1"
unit = "%"
value = 4.3

[[record]]
compound = "O=C(O)c1cccc(NC2=C(Cl)C(=O)c3ccccc3C2=O)c1"
unit = "%"
value = 39.9

[[record]]
compound = "CN(C(=O)c1c(Br)cnn1C)C12CC3CC(CC(C3)C1)C2"
unit = "%"
value = -2.3

[[record]]
compound = "CCNCc1ccc(OCc2ccccc2F)c(OC)c1"
unit = "%"
value = -4.4

[[record]]
compound = "Cc1ccc(C(C)C)c(OC(=O)/C=C/c2ccccc2)c1"
unit = "%"
value = 6.5

[[record]]
compound = "CCc1nc2ccccc2c(C(=O)Oc2cccc3cccnc23)c1C"
unit = "%"
value = 7.3

[[record]]
compound = "COc1cc(CNc2ccc(O)cc2)cc(Br)c1OCc1ccccc1F"
unit = "%"
value = 57.4

[[record]]
compound = "Cc1ccc2cccc(OC(=O)c3ccc4c(c3)OCCO4)c2n1"
unit = "%"
value = 54

